meta.source: the NIST ThermoML archive (doi:10.1016/j.jct.2013.02.004)

Assay: activity coefficient (dimensionless); of the first substance listed, at infinite dilution; xn = mol fraction of the nth substance listed
Conditions: 328.15 K; 101 kPa; Liquid; Chromatography; x1 = 0
MEASURED ATTRIBUTE: activity coefficient

[[record]]
compound = "C1=CCCCC1 [cyclohexene] + CCCCCC[n+]1ccc2ccccc2c1.N#C[S-]"
measured_attribute = "activity coefficient"
reported_measurement = 6.6

[[record]]
compound = "CCCCC(C)=O [2-hexanone] + CCCCCC[n+]1ccc2ccccc2c1.N#C[S-]"
measured_attribute = "activity coefficient"
reported_measurement = 2.62

[[record]]
compound = "CCCOCCC [dipropyl ether] + CCCCCC[n+]1ccc2ccccc2c1.N#C[S-]"
measured_attribute = "activity coefficient"
reported_measurement = 14.2

[[record]]
compound = "CC(C)CC(C)(C)C [2,2,4-trimethylpentane] + CCCCCC[n+]1ccc2ccccc2c1.N#C[S-]"
measured_attribute = "activity coefficient"
reported_measurement = 68.6

[[record]]
compound = "CCc1ccccc1 [ethylbenzene] + CCCCCC[n+]1ccc2ccccc2c1.N#C[S-]"
measured_attribute = "activity coefficient"
reported_measurement = 3.08

[[record]]
compound = "C=CCCCCC [1-heptene] + CCCCCC[n+]1ccc2ccccc2c1.N#C[S-]"
measured_attribute = "activity coefficient"
reported_measurement = 20.9

[[record]]
compound = "CO [methanol] + CCCCCC[n+]1ccc2ccccc2c1.N#C[S-]"
measured_attribute = "activity coefficient"
reported_measurement = 0.381

[[record]]
compound = "CCCC(=O)CC [3-hexanone] + CCCCCC[n+]1ccc2ccccc2c1.N#C[S-]"
measured_attribute = "activity coefficient"
reported_measurement = 2.86

[[record]]
compound = "CCC[N+](=O)[O-] [1-nitropropane] + CCCCCC[n+]1ccc2ccccc2c1.N#C[S-]"
measured_attribute = "activity coefficient"
reported_measurement = 1.39


----------
Experiment: activity coefficient (dimensionless); of the first substance listed, at infinite dilution; xn = mol fraction of the nth substance listed
Details: 348.15 K; 101 kPa; Liquid; Chromatography; x1 = 0
MEASURED ATTRIBUTE: activity coefficient

[[record]]
compound = "CCCOCCC [dipropyl ether] + CCCCCC[n+]1ccc2ccccc2c1.N#C[S-]"
measured_attribute = "activity coefficient"
reported_measurement = 12.6

[[record]]
compound = "C1=CCCCC1 [cyclohexene] + CCCCCC[n+]1ccc2ccccc2c1.N#C[S-]"
measured_attribute = "activity coefficient"
reported_measurement = 5.9

[[record]]
compound = "CCC(C)(C)OC [2-methoxy-2-methylbutane] + CCCCCC[n+]1ccc2ccccc2c1.N#C[S-]"
measured_attribute = "activity coefficient"
reported_measurement = 8.36

[[record]]
compound = "CCCCCC [hexane] + CCCCCC[n+]1ccc2ccccc2c1.N#C[S-]"
measured_attribute = "activity coefficient"
reported_measurement = 28.3

[[record]]
compound = "CC(C)=O [acetone] + CCCCCC[n+]1ccc2ccccc2c1.N#C[S-]"
measured_attribute = "activity coefficient"
reported_measurement = 1.3

[[record]]
compound = "c1ccccc1 [benzene] + CCCCCC[n+]1ccc2ccccc2c1.N#C[S-]"
measured_attribute = "activity coefficient"
reported_measurement = 1.48

[[record]]
compound = "CCCC(C)=O [pentan-2-one] + CCCCCC[n+]1ccc2ccccc2c1.N#C[S-]"
measured_attribute = "activity coefficient"
reported_measurement = 2.12

[[record]]
compound = "CCCCCCCC [octane] + CCCCCC[n+]1ccc2ccccc2c1.N#C[S-]"
measured_attribute = "activity coefficient"
reported_measurement = 45.7

[[record]]
compound = "c1ccsc1 [thiophene] + CCCCCC[n+]1ccc2ccccc2c1.N#C[S-]"
measured_attribute = "activity coefficient"
reported_measurement = 0.963

